# SYSTEM_TESTED: xanthine oxidase (Homo sapiens)
# Sequence (P47989 whole entry, species assumed): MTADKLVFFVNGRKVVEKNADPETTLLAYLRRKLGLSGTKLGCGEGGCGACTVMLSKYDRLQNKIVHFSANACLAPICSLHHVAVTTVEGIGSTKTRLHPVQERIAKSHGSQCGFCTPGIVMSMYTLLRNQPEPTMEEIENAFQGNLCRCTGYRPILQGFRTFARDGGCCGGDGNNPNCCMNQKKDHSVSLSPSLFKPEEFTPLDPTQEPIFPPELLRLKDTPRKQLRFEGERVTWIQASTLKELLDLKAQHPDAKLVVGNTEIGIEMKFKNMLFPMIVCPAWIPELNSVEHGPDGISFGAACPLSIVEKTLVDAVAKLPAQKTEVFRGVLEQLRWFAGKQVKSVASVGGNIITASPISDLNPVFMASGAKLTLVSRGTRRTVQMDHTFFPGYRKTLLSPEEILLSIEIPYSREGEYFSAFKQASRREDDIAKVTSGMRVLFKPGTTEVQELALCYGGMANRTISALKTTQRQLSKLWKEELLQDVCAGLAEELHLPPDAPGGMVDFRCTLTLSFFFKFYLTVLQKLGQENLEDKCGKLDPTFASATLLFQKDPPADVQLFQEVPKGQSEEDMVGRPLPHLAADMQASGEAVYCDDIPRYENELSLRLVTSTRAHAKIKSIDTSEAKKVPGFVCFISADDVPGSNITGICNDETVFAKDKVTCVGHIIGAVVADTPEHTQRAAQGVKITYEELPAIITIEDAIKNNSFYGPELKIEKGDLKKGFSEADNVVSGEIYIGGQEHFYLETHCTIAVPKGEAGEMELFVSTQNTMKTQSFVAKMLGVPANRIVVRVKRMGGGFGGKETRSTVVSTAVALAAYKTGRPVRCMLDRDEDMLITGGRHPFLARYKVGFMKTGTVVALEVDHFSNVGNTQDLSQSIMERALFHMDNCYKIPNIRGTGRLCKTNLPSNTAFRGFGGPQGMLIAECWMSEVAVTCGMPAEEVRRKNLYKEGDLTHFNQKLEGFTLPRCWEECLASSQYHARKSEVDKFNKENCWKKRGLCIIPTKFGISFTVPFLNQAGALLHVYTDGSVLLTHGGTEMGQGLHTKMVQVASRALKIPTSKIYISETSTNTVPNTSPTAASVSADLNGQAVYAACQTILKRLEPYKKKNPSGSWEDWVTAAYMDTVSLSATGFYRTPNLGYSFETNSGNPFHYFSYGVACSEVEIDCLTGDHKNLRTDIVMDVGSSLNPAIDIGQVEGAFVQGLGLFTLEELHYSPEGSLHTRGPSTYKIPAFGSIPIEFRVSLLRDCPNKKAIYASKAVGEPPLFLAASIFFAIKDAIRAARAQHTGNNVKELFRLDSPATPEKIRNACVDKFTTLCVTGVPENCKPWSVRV
# ASSAY_OVERVIEW: xanthine oxidase assay, same ROS read-out as NOX assays
# Type: biochemical
# STUDY_CONDITIONS: read-out: Ki on xanthine oxidase
QUANTITY_MEASURED: pKi
pKi (log units): -log10 of the concentration in mol/L.

Q: Checklist item: pKi tested on xanthine oxidase (Homo sapiens), entry c1ccc([I+]c2ccccc2)cc1 [DPI, Diphenyliodonium, reference compound] , value?
Ans: 7.30

---

# SYSTEM_TESTED: human Nox4 (Homo sapiens)
# Sequence (Q9NPH5 1-578): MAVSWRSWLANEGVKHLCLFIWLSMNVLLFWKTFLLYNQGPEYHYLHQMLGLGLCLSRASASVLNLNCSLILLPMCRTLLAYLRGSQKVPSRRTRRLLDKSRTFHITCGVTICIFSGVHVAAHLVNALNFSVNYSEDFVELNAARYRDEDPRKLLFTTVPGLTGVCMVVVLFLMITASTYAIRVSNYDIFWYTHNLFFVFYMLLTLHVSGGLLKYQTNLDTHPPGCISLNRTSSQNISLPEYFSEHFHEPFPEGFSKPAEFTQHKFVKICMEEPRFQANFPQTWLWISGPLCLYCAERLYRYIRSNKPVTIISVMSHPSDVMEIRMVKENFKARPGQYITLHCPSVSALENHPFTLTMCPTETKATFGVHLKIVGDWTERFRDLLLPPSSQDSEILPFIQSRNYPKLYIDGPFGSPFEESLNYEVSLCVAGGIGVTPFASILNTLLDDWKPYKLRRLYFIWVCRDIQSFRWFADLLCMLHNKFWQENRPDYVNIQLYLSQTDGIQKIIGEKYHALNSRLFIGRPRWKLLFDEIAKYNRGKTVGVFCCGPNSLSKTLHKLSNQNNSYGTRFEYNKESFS
# Sequence (P13498 2-195 partner limits assumed): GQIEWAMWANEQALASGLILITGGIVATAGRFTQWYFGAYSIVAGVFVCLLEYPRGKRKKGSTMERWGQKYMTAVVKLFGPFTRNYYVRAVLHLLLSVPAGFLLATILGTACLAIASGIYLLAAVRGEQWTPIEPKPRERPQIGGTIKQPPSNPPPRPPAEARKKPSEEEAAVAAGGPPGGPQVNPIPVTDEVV
QUANTITY_MEASURED: Ki

Q: Which Ki reading was recorded for the compound c1ccc([I+]c2ccccc2)cc1 [DPI, Diphenyliodonium, reference compound] ?
Ans: 70 nM

---

# SYSTEM_TESTED: human Nox1 (Homo sapiens)
# Sequence (Q9Y5S8 1-564): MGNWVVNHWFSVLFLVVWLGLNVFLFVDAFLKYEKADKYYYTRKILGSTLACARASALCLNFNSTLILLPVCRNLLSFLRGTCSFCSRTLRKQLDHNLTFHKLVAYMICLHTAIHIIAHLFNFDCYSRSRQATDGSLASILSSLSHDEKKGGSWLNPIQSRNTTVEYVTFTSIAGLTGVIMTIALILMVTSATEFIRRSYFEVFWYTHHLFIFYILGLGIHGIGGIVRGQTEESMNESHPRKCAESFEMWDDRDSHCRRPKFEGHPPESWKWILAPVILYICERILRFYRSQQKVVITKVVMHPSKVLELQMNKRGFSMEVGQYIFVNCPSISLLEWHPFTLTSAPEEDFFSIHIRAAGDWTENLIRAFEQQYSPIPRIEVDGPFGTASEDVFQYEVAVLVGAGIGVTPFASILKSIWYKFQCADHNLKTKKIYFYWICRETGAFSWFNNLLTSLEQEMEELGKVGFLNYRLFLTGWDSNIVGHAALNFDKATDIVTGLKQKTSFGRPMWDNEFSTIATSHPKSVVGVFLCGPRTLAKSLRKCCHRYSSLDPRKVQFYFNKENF
# Sequence (P13498 2-195 partner limits assumed): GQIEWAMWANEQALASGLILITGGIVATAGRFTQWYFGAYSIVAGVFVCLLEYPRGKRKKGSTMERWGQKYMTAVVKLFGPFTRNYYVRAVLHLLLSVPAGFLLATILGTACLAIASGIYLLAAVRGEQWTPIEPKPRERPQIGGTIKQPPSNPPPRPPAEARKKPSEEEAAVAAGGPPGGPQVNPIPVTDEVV
QUANTITY_MEASURED: Ki
Reply with a number, then the unit it belongs to.

Q: Which Ki reading was recorded for the compound CN(C)c1cccc(-c2c3c(=O)n(-c4ccccc4Cl)[nH]c3cc(=O)n2C)c1 [GKT137831] ?
Ans: 110 nM

---

# SYSTEM_TESTED: xanthine oxidase (Homo sapiens)
# ASSAY_OVERVIEW: xanthine oxidase assay, same ROS read-out as NOX assays
# Assay type: biochemical
pKi: −log10 of the molar value.
QUANTITY_MEASURED: pKi

Q: Which pKi reading was recorded for the compound `CN(C)c1cccc(-c2c3c(=O)n(-c4ccccc4Cl)[nH]c3cc(=O)n2C)c1` ?
Ans: < 4.00
